Test system: OVCAR-5 ovarian
Assay: NCI tumour cell line growth inhibition, 48 h
TGI listing for selected molecules.

{"Molecule": "NC(CCl)=NC1CN2CCC1CC2 (stereo unspecified)", "TGI": "> 100 µM"}
{"Molecule": "COC(=O)c1ccc(CCC2=CC(=O)C(Br)=CC2=O)cc1", "TGI": "33.6 µM"}
{"Molecule": "Nc1nc2cc(CNc3ccc(C(=O)O)cc3)ccc2nc1-c1ccccc1", "TGI": "> 100 µM"}
{"Molecule": "COc1ccc2c(c1)C1Oc3ccccc3CC1(O)CO2 (stereo unspecified)", "TGI": "> 100 µM"}
{"Molecule": "O=C1C(=Cc2ccco2)C(=O)C2CCCCC12 (stereo unspecified)", "TGI": "> 100 µM"}
{"Molecule": "O=C(Nc1ccc(Cl)cc1)c1cccc([N+](=O)[O-])c1O", "TGI": "> 100 µM"}
{"Molecule": "Cc1ncc([N+](=O)[O-])n1CCNS(=O)(=O)CCCn1ccnc1[N+](=O)[O-]", "TGI": "> 100 µM"}
{"Molecule": "CC1(C)NCCC[C@]2(C)[C@H]3C=CC4=C5C[C@](C)(CO)CC[C@]5(C)CC[C@@]4(C)[C@]3(C)CC[C@@H]12", "TGI": "25.3 µM"}
{"Molecule": "CC(=O)c1cc2c(s1)C(=O)c1scc(C(C)=O)c1C2=O", "TGI": "4.14 µM"}
{"Molecule": "O=c1c2ncn(C3CCCCO3)c2n(-c2ccccc2)c(=S)n1-c1ccccc1 (stereo unspecified)", "TGI": "> 76.5 µM"}
{"Molecule": "FC(F)(F)c1cccc(COCCN2CCN(Cc3cccc(C(F)(F)F)c3)CC2)c1", "TGI": "31.6 µM"}

----------
TGI listing for selected compounds.
Test system: MDA-MB-231 breast
Experiment: NCI tumour cell line growth inhibition, 48 h

{"Compound": "CC1(C)OC[C@@H]([C@@]2(CO[Si](C)(C)C(C)(C)C)CC=CC(=O)O2)O1", "System": "MDA-MB-231 breast", "Modifier": "=", "TGI [µM]": 59.9}
{"Compound": "COc1ccc2c(c1)nc(N)c1c3cc(OC)c(OC)cc3cn21", "System": "MDA-MB-231 breast", "Modifier": "=", "TGI [µM]": 17.4}
{"Compound": "COC(=O)COc1ccc(/C=C2\\N=C(c3ccccc3)N(c3cc(C(F)(F)F)ccc3Cl)C2=O)cc1", "System": "MDA-MB-231 breast", "Modifier": ">", "TGI [µM]": 100}
{"Compound": "O=c1[nH]nc(-c2ccc([N+](=O)[O-])cc2)n1/N=C/c1ccc([N+](=O)[O-])cc1", "System": "MDA-MB-231 breast", "Modifier": ">", "TGI [µM]": 100}
{"Compound": "O=C(c1cc(F)c(Cl)cc1Cl)N1N=C(c2ccccc2)CC1(O)c1ccccc1 (stereo not given)", "System": "MDA-MB-231 breast", "Modifier": "=", "TGI [µM]": 33.3}

----------
GI50 listing for selected compounds.
Test system: BT-549 breast
Assay: NCI tumour cell line growth inhibition, 48 h

{"Compound": "COC1/C=C\\C=C(/C)C(=O)Nc2cc3nc4ccc(Br)cc4oc-3c(c2=O)CC(C)CC(OC)C(O)C(C)/C=C(\\C)C1OC(N)=O (stereo unspecified)", "GI50": "10.1 µM"}
{"Compound": "Cn1ccc2c(NCCN)c3c(c(NCCN)c21)C(=O)c1ccccc1C3=O", "GI50": "7.62 µM"}
{"Compound": "O=[N+]([O-])c1ccc(-c2nc(N(CCO)CCO)c3ccccc3n2)o1", "GI50": "0.174 µM"}
{"Compound": "COc1ccc2c(c1)nc(N)c1c3cc(OC)c(OC)cc3cn21", "GI50": "0.827 µM"}
{"Compound": "C=C1CC[C@@]2(C#N)[C@H]3[C@H](CC[C@@H]2C)[C@@H](C)C[C@@H](CC(C)(C)C#N)[C@H]13", "GI50": "1.23 µM"}
{"Compound": "NCCCC(=O)Nc1ccncc1", "GI50": "> 100 µM"}
{"Compound": "Nc1nc(Nc2ccc3c(c2)CC[C@@H](N2CCCC2)CC3)nn1-c1cc2c(nn1)-c1ccccc1CCC2", "GI50": "1.6 µM"}
{"Compound": "COc1ccc(C2=NN(C(=O)COc3ccc(Cl)cc3)C(O)(c3cc(F)c(Cl)cc3Cl)C2)cc1OC (stereo unspecified)", "GI50": "2.75 µM"}
{"Compound": "C[C@@H]1O[C@@H](O[C@@H]2[C@@H](O)[C@H](OCCc3ccc(O)c(O)c3)O[C@H](COC(=O)/C=C/c3ccc(O)c(O)c3)[C@H]2O)[C@H](O)[C@H](O)[C@H]1O", "GI50": "12.8 µM"}
{"Compound": "CCCCCNC(=O)[C@@H]1CCCN2C(=O)CC[C@H](NC(=O)[C@H](Cc3ccc(OP(=O)(O)O)cc3)NC(C)=O)C(=O)N12", "GI50": "> 25 µM"}
{"Compound": "COC(=O)COc1ccc(/C=C2\\N=C(c3ccccc3)N(c3cc(C(F)(F)F)ccc3Cl)C2=O)cc1", "GI50": "28.1 µM"}

----------
TGI listing for selected molecules.
Tested on: SF-268 CNS
Experiment: NCI tumour cell line growth inhibition, 48 h
Outcome Measure: TGI

{"Molecule": "O=C(NC1CC1)c1ccc(-c2nc3ccc4[nH]ncc4c3c3c2CCCC3)cc1", "System": "SF-268 CNS", "Outcome Measure": "TGI", "Data Value": "14 µM"}
{"Molecule": "COC(=O)NC/C=C\\c1nc(CC/C=C\\C(=O)OC2CC3CC(=O)O[C@H](/C=C/CC(C)C)C[C@H]4CCC(C)C(C[C@H](OC)CC(C2)O3)O4)co1 (some centres undefined)", "System": "SF-268 CNS", "Outcome Measure": "TGI", "Data Value": "24.3 µM"}
{"Molecule": "S=c1nc(Oc2ccc(Cl)c(Cl)c2)[nH]c(=S)[nH]1", "System": "SF-268 CNS", "Outcome Measure": "TGI", "Data Value": "> 81.8 µM"}
{"Molecule": "CC(C)=CC(=O)Oc1ccc([N+](=O)[O-])cc1", "System": "SF-268 CNS", "Outcome Measure": "TGI", "Data Value": "> 100 µM"}
{"Molecule": "CCN1C(=O)N(CC)C2C1NN=c1s/c(=C3\\C(=O)N(CC(C)C)c4ccccc43)c(=O)n12 (centres undefined)", "System": "SF-268 CNS", "Outcome Measure": "TGI", "Data Value": "> 59.9 µM"}
{"Molecule": "COC(=O)/C=C(C)/C=C/c1cc(C(C)=O)c(C)o1", "System": "SF-268 CNS", "Outcome Measure": "TGI", "Data Value": "> 100 µM"}
{"Molecule": "CC(=O)[C@H]1CC[C@H]2[C@@H]3CCC4=CC(=O)CC[C@]4(C)[C@H]3CC[C@]12C", "System": "SF-268 CNS", "Outcome Measure": "TGI", "Data Value": "69.8 µM"}
{"Molecule": "O=C(Nc1ccc(Cl)cc1)c1cccc([N+](=O)[O-])c1O", "System": "SF-268 CNS", "Outcome Measure": "TGI", "Data Value": "> 85 µM"}
{"Molecule": "O=C(Nc1ccc(-n2cc(-c3ccncc3)c(-c3ccc(O)c(Cl)c3)n2)cc1)c1cc(Cl)cc(Cl)c1", "System": "SF-268 CNS", "Outcome Measure": "TGI", "Data Value": "> 32.5 µM"}

----------
Tested on: KM12 colon
Assay: NCI tumour cell line growth inhibition, 48 h; in the data active = GI50 below about 0.43 µM; inactive = the rest
Classes used: active, inactive

{"Molecule": "O=C(Nc1ccc(-n2cc(-c3ccncc3)c(-c3ccc(Cl)c(O)c3)n2)cc1)Nc1cc(C(F)(F)F)cc(C(F)(F)F)c1", "Category Label": "inactive"}
{"Molecule": "Nc1ccc(C(=O)c2ccc(N)c(Br)c2)cc1Br", "Category Label": "active"}
{"Molecule": "COc1ccc(CNc2nc3cc(N)cc(N)c3nc2-c2ccccc2)cc1OC", "Category Label": "inactive"}
{"Molecule": "COc1cc(Cl)cc(-c2nn(C(=O)NCCN3CCN(C)CC3)cc2-c2ccncc2)c1", "Category Label": "inactive"}
{"Molecule": "CC(=O)OCC1OC(OC2CC3C(C)(C)C(OC(C)=O)CC[C@]3(C)C3CCC45CC4(CC[C@H]5C(C)CC(O)[C@@H](O)C(C)(C)O)[C@]23C)C(O)C(O)C1O (stereo partly specified)", "Category Label": "inactive"}
{"Molecule": "c1ccc(C(=NNc2nc3ccccc3o2)c2ccccn2)nc1", "Category Label": "active"}

----------
Tested on: K-562 leukemia
Experiment: NCI tumour cell line growth inhibition, 48 h

{"Smi": "CC(=O)[CH-]C(=O)c1ccccc1.CC(=O)[CH-]C(=O)c1ccccc1.CC(=O)[CH-]C(=O)c1ccccc1.[Tl+3]", "GI50": "2.32 µM"}
{"Smi": "CCCc1ccc(S(=O)(=O)N[C@H]2CC[C@H]3[C@@H]4CCc5cc(O)ccc5[C@H]4CC[C@]23C)cc1", "GI50": "3.06 µM"}
{"Smi": "COc1cc(NC(=O)c2cc(OC)c3ccn(C)c3c2)cc2c1C[C@]1(C)CC[C@@H](O)C(C)(C)[C@H]1O2", "GI50": "3.82 µM"}
{"Smi": "CC1(C)NCCC[C@]2(C)[C@H]3C=CC4=C5C[C@](C)(CO)CC[C@]5(C)CC[C@@]4(C)[C@]3(C)CC[C@@H]12", "GI50": "3.18 µM"}
